Please go through the items and note down their Binding Score.
Molecular target: MHC-II DRB1*04:01 (Homo sapiens, UniProt P01903+P01911, A100K/A169T/F76Y/I96L/K127E/L162R/M171V/N62H/P40V/Q125Y/R42H/S133A/S149N/S66Y/V115G/V209L/W38E)
Test: Cell-free REVEAL class II binding assay
Conditions: signal of test peptide as percentage of allele-specific positive control peptide, fluorescence, conformation-specific monoclonal antibody
Note: unit % is implicit; provide only the numeric part.

Binding Score in this record for MKVTGVTTQGVKSLL [synthetic wild type FVIII 15 mer peptide, region of ns-SNP M2238V] : 7.8

Binding Score in this record for RIHPQSWVHQIALRM [synthetic wild type FVIII 15 mer peptide] : 54.3

Binding Score in this record for YIRLHPTHYSIRSTL [synthetic wild type FVIII 15 mer peptide] : 59.3

Binding Score in this record for NPPIIARYIRLHPTH [synthetic wild type FVIII 15 mer peptide] : 5.0

Binding Score in this record for PQVNNPKEWLQVDFQ [synthetic wild type FVIII 15 mer peptide] : 0.0

Binding Score in this record for IIMYSLDGKKWQTYR [synthetic wild type FVIII 15 mer peptide] : 8.3

Binding Score in this record for YTFKHKMVYEDTLTL [synthetic wild type FVIII 15 mer peptide] : 5.0

Binding Score in this record for QKFSSLYISQFIIMY [synthetic wild type FVIII 15 mer peptide] : 1.9

Binding Score in this record for IFNPPIIARYIRLHP [synthetic wild type FVIII 15 mer peptide] : 1.7
